Test system: PPARg homodimer (NR concentration 180 nM)
Test: PBM binding z-score (relative to random genomic background probes); higher = stronger binding; sequences stand for … in GC…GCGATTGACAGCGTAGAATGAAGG

ORDERED_RESIDUES | PBM binding z-score
CCGACTGGGGGAAAGGTTACCATACTCAGTACGA | 1.86
GCGAGCAGGCCATTTGGGTCACTCAATGACGGGC | 0.0566
GCGACTGGGGCATCAGCAGGTTACGATAACTTAA | 0.335
TCATATAGGTAAACAGGTGAGAGTCCGTAAGTTA | 0.708
TCTTGTAGATCAAGGGTTAAGAAAGCCGAAGCCT | 1.12
CGAAGTAGGTCAAGGACAGTGAATCTCCGCACGC | 2.14
ACTCGTAGGACAAAGGTCAGAGCTACGCCAGTGA | 4.17
GCTAGCAGGCCATTTGGGTCACTAAATGACGGGC | -0.0846
TCATATAGGTACATGCTAGGTGAAAGTCCGATCT | 0.444
GGAACCAGGGCAAGTTGATAGCAGAGTTTGATGG | 1.02
CCTAGTAGGTCAGGAGGTCACACACCGGATATGA | 4.99
GCGACTGGGGCATCAGCAGGTTACCATTACTTAA | 0.00295
CCTACTGGGCCAAAAAGGTCATTGTTGCCGATAA | 2.39
ATCTCTACGTAAGACTCAGTTCAGTGAAGAACGC | 0.776

====

System: PPARg:RXRa 90nM:30nM, anti-RXR (NR concentration 90 nM, RXRa partner concentration 30 nM)
Test: PBM binding z-score (relative to random genomic background probes); higher = stronger binding; sequences stand for … in GC…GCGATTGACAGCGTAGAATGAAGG
Record fulfilled whenever PBM binding z-score is at 0.2 or higher; record not fulfilled when lower.

ORDERED_RESIDUES | LABEL_CLASS
CGTCCAAGGTCAATGCTAGGACAGTGAAAGCATT | fulfilled
CGAACGAGGGCATGAGTTGACAGCAAATGCCGAT | fulfilled
AGAACGAGGGCATTGAGTTGATAGCACGGGTGGC | not fulfilled
AGAACGAGGGCAATGAGTTGATGGCACGGGTGGC | fulfilled
TCTCGGAGGACACGTAAGGTCAGAGCTCGACATC | fulfilled
GCAGACAGGTGAAACGCAAGTAACTCAGGGTGGC | not fulfilled
ACTCAAAGTTCAGGACGAGGTAACGTAAAGCACG | fulfilled
ATCTCTAGGTACAGTTCAGTGAAAGATCGATAGA | fulfilled
CCTAGCAGGCCAATCTGGGTTACTCAAGGCTTGA | not fulfilled
ACTAGCAGGCCTAGTTTGGGTCACTCAAACAAAG | not fulfilled
CCTACTGGGCTAAAAAGGTCATTGATGCCGATAA | fulfilled
TCTTGTAGATCAAGCAGGTTAATAAAGCCTGAGT | fulfilled
GGAACGAGGGCAAGTTAATAGCAGAGTTTGATGG | fulfilled
CAGCCTAGCTCAGGGCCAGTATAGGAGGAACGTT | not fulfilled
TCTTGTAGATCAACAGGAGGTAAAGAAAGATCGA | fulfilled
CGTCCAAGGTCAAAGGTCGGTGAAGAGATGACGG | fulfilled
TAGCCCAGGTCATTCAGGGGCCAGTATAGAAAGC | fulfilled
CCTATTAGATGACCATAAGGGCAACCGAAGCTCG | not fulfilled
GTACCATGGTGAATAGGTCGTTGATGAGTAGGCG | not fulfilled
CCTAGCAGGCCAGGGTCACTTAAGCATTTCGCTT | fulfilled
ATCGCAAGGTCGACGAGGTGAGTATACACCGTTT | fulfilled
CAAACTAGGTCTAGGTCAAAGTCGGTTTGTGCCA | fulfilled
AGTCAAAGTTCATCTAAGTAACGTAAGATATGCT | fulfilled
